Target: T1, cTnI quality control product recombinant protein (human, UniProt P19429 2-210, limits assumed)
T1 construct: treated as the same molecule; also called cTnI antigen; cardiac troponin I
T1 sequence (P19429 2-210 limits assumed): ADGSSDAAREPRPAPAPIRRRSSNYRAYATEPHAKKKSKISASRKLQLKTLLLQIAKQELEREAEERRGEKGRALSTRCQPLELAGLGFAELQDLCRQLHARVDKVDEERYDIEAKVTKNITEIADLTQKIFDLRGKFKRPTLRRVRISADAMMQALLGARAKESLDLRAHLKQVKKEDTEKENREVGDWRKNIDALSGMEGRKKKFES
Test: AMC sensor, antibody immobilised, cTnI in solution
endpointName: pKd
# pKd = -log10(concentration in molar units)

Mutation 1-40 (antibody, V domains shown, Built as m8) VH: EVQLQQSGPELVKPGASVKMSCKASGYTFTIYVLHWVKQKPGQGLEWIGYIQPYLDGTKYNEKFKGKATLTVDKSSSTAFMELSSLTSEDSAVYYCARSGYGNYGLAWLAYWGQGTLVTVSA VL: QAVVIQESALTTSPGETVTLTCRSSTGAVTTSNYANWVQEKPDHLFTGLIGGSNNRAPGVPARFSGSLIGDKAALTITGAQTEDEAIYFCALVYSNNWVFGGGTKLTVLG | 8.73

// moving on: another record for pKd
GET /values?readout=pKd&item= Mutation 1-43 (antibody, V domains shown, Built as m8) VH: EVQLQQSGPELVKPGASVKMSCKASGYTFTIYVLHWVKQKPGQGLEWIGYIYPYIDGTKYNEKFKGKATLTVDKSSSTAFMELSSLTSEDSAVYYCARSGYGNYGLAWLAYWGQGTLVTVSA VL: QAVVIQESALTTSPGETVTLTCRSSTGAATTSQYANWVQEKPDHLFTGLIGGSQNRAPGVPARFSGSLIGDKAALTITGAQTEDEAIYFCALVYSNQWVFGGGTKLTVLG
9.33
